A collection of molecules and their measured DC50
Biological target: TYK2 (Homo sapiens, UniProt P29597)
Construct: Degradation of TYK2 in cells was quantitatively measured using Meso Scale Discovery (MSD) technology; endogenous in cells; host or cells: OCI-LY10
Sequence (P29597 whole entry): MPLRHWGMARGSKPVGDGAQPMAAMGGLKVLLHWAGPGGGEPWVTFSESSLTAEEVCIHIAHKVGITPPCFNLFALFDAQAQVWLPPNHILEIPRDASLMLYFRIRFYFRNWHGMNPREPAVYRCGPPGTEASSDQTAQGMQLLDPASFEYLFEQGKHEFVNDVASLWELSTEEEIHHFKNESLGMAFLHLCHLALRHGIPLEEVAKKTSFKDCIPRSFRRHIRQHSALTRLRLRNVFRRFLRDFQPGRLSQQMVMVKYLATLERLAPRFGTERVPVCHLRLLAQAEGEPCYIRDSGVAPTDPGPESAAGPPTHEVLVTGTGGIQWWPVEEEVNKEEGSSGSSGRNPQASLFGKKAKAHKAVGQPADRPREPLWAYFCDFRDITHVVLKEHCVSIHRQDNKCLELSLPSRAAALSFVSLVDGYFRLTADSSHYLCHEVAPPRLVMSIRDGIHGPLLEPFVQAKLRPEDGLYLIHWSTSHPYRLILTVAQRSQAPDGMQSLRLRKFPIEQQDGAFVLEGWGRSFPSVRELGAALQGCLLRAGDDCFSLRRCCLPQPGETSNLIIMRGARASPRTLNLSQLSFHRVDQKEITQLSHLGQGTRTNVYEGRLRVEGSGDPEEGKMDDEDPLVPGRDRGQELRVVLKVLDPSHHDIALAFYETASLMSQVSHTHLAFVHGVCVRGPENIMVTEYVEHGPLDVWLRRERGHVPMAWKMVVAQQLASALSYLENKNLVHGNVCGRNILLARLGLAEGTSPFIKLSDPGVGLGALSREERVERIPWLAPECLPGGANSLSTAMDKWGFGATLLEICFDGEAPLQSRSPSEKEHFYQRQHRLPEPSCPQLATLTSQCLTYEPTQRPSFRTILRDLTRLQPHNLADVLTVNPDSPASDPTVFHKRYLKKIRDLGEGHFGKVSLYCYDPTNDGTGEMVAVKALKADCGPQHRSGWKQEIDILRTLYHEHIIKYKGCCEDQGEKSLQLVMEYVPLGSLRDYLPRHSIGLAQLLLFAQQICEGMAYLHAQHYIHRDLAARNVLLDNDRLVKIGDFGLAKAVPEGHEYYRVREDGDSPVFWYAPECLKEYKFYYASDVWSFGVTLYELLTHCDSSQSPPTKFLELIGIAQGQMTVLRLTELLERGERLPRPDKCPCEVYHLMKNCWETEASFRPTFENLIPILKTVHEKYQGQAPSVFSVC
Assay: TYK2 MSD degradation in OCI-LY10 cells
Type: cell-based
Conditions: TYK2 degradation in OCI-LY10 cells, 4 to 24 hours incubation, read-out: TYK2 MSD OCI-LY10 Rel-DC50

Please review the following examples before continuing.
| molecule | assay-system | DC50 |
| --- | --- | --- |
| CNc1cc(N2CCc3c(N4CCC5(CCN(C(=O)c6ccc(Cl)c(N7CCC(=O)NC7=O)c6)CC5)CC4)cccc32)nn2c(C(=O)N[C@@H]3C[C@@H]3F)cnc12 [I-93] | TYK2 (Homo sapiens, UniProt P29597) | < 10 nM |
| COC1(c2cc(C)cc(-c3cn(CCC4CCN(C5CCN(c6cc(F)c(C7CCC(=O)NC7=O)c(F)c6)CC5)CC4)c4cnc(NC(C)=O)cc34)n2)CCOC1 (stereo not drawn) [I-1130] | TYK2 (Homo sapiens, UniProt P29597) | < 10 nM |

In: For the molecule shown here, CNc1cc(N2CCc3c(-c4ccc(CN5CCC6(CCN(C(=O)c7ccc(Cl)c(N8CCC(=O)NC8=O)c7)CC6)C(F)(F)C5)cn4)cccc32)nn2c(C(=O)N[C@@H]3CC[C@H]3C(F)(F)F)cnc12 [I-1108] , give the reported DC50.
Out: > 100 nM

The reported measurements were obtained from patent US20260125400A1.
